# measurement-protocol: Drug levels in retrieved capsules, IP lavage and plasma in non-human primates (HPLC, LCMS)
# Format: in vivo, cynomolgus macaques
# protocol-conditions: cynomolgus monkey, intraperitoneal space lavage fluid, ip; 4 weeks post-implantation
experimental-readout: concentration at 4 weeks

**Q:** Hello, please tell me recorded concentration at 4 weeks for this one: COc1ccc(COc2ccc(Cc3cnc(N)nc3N)cc2OC)cc1 [GW2580]
**A:** 2 to 3 ng/mL
